# Measured Target: A2A adenosine receptor (Rattus norvegicus)
# Sequence (P30543 whole entry, the tested form may be a part): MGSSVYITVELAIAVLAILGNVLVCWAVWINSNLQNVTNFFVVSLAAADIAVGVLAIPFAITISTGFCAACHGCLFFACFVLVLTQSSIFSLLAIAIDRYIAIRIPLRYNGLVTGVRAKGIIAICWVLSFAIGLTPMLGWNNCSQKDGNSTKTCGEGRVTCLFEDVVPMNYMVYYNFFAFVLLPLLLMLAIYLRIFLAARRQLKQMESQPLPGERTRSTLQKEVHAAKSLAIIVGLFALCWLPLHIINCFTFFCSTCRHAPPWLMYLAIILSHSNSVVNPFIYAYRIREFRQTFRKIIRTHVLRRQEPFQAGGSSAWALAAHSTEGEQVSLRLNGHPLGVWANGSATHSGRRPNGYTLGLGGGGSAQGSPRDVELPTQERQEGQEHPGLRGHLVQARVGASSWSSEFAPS
# Assay Protocol: Reversal time of coronary vasodilation after bolus injection in rat isolated perfused hearts
# Test Conditions: rat isolated perfused hearts, bolus into perfusion line
Metric Name: t 0.9, time to 90% reversal of the increase in coronary conductance (min)
Supply the numeric figure in min, leaving out any unit text.

Some entries whose results are on file:
• CCCCC#Cc1nc(N)c2ncn([C@@H]3O[C@H](C(=O)NCC)[C@@H](O)[C@H]3O)c2n1 [HENECA, reference compound] = 32.8
• Nc1nc(-c2cnn(CCCc3ccccc3)c2)nc2c1ncn2C1O[C@H](CO)[C@@H](O)[C@H]1O (stereo partly shown) [Compound 21] = 12.6
• CCCCCn1cc(-c2nc(N)c3ncn([C@@H]4O[C@H](CO)[C@@H](O)[C@H]4O)c3n2)cn1 [Compound 18] = 8.4

Now look at this entry.
Just so you know, measured t 0.9, time to 90% reversal of the increase in coronary conductance for CCCCCCC#Cc1nc(N)c2ncn([C@@H]3O[C@H](CO)[C@@H](O)[C@H]3O)c2n1 [YT-146, reference compound] came out at 28.5
